Test system: SW 480
Experiment: Growth inhibition test (MTT) for cytotoxic properties, SW 480
Conditions: Homo sapiens, SW480, 144 h, read-out: IC50/nM SW 480
Structures can show the parent of a compound that is named as a salt.
recordedMetric: IC50 (nM)
Numbers only; they are read as nM.

Worked cases, IC50 given:
- compound: "CCC1(OC(=O)C(NC(=O)[C@H](Cc2c[nH]cn2)NC(=S)Nc2ccc(OC3OC(C)C(O)C(OC)C3O)cc2)C(C)C)C(=O)OCc2c1cc1n(c2=O)Cc2cc3ccccc3nc2-1.Cl (stereo partly shown) [Example 2, hydrochloride]"
  targetSystem: "SW 480"
  recordedMetric: "IC50"
  experimentalResult: 100
- compound: "CC[C@@]1(OC(=O)[C@@H](CC(C)C)NC(=O)[C@@H](CCCCN)NC(=S)Nc2ccc(OC3O[C@@H](C)[C@@H](O)[C@@H](OC)[C@@H]3O)cc2)C(=O)OCc2c1cc1n(c2=O)Cc2cc3ccccc3nc2-1 (stereo partly shown) [Example 3, hydrochloride]"
  targetSystem: "SW 480"
  recordedMetric: "IC50"
  experimentalResult: 100
- compound: "CC[C@@]1(OC(=O)[C@H](CC(C)C)NC(=O)[C@H](CCCCN)NC(=S)Nc2ccc(OC3O[C@@H](C)[C@@H](O)[C@@H](OC)[C@@H]3O)cc2)C(=O)OCc2c1cc1n(c2=O)Cc2cc3ccccc3nc2-1 (stereo partly shown) [Example 7, hydrochloride]"
  targetSystem: "SW 480"
  recordedMetric: "IC50"
  experimentalResult: 80

In the following, a different compound is considered.
**Q:** Fill in reported IC50 for this entry: CC[C@@]1(OC(=O)[C@@H](CC(C)C)NC(=O)[C@H](CCCNC(=N)N)NC(=S)Nc2ccc(OC3O[C@@H](C)[C@@H](O)[C@@H](OC)[C@@H]3O)cc2)C(=O)OCc2c1cc1n(c2=O)Cc2cc3ccccc3nc2-1 (stereo partly shown) [Example 5]
**A:** 80
